// provenance: paper PMC6100046

- ASSAY NOTES: Plasma pharmacokinetics of canagliflozin and its metabolites after oral administration to CTRL and type 2 diabetic (DM) rats, UPLC-MS/MS
- Assay type: in vivo, rat
- TEST PARAMETERS: rat plasma after canagliflozin; UPLC-TOF-MS/MS identification
ENDPOINT: Concentration of metabolite in rat plasma (in words)

>  <COMPOUND>
Cc1ccc(C2OC(CO)C(O)C(OC3OC(C(=O)O)C(O)C(O)C3O)C2O)cc1Cc1ccc(-c2ccc(F)cc2)s1 (stereo not shown) [M7]

>  <OBS VALUE>
high

$$$$
>  <COMPOUND>
Cc1ccc(C2OC(CO)C(O)C(O)C2OC2OC(C(=O)O)C(O)C(O)C2O)cc1Cc1ccc(-c2ccc(F)cc2)s1 (stereo not shown) [M5]

>  <OBS VALUE>
high

$$$$
>  <COMPOUND>
Cc1ccc(C2OC(CO)C(O)C(O)C2O)cc1C(O)c1ccc(-c2ccc(F)cc2)s1 (stereo not shown) [M9]

>  <OBS VALUE>
high

$$$$

----------
- ASSAY NOTES: Stability of canagliflozin in rat plasma samples (QC samples)
- Assay type: in vitro ADME
- TEST PARAMETERS: rat plasma; room temperature (25 °C) for 24 h; nominal concentration 500; n = 5
ENDPOINT: Concentration found after storage (Mean ± SD) (ng/mL)

>  <MOLECULE>
Cc1ccc([C@@H]2O[C@H](CO)[C@@H](O)[C@H](O)[C@H]2O)cc1Cc1ccc(-c2ccc(F)cc2)s1 [Canagliflozin]

>  <OBS VALUE>
504

$$$$

----------
- ASSAY NOTES: Plasma pharmacokinetics of canagliflozin and its metabolites after oral administration to CTRL and type 2 diabetic (DM) rats, UPLC-MS/MS
- Format: in vivo, rat
- TEST PARAMETERS: rat, plasma, po, 20 mg/kg, Cmax, CTRL rats; canagliflozin 20 mg/kg oral; mean ± SD, n = 5; metabolites semi-quantitative
ENDPOINT: Cmax

>  <MOLECULE>
Cc1ccc(C2OC(CO)C(O)C(O)C2OC2OC(C(=O)O)C(O)C(O)C2O)cc1Cc1ccc(-c2ccc(F)cc2)s1 (stereo not shown)

>  <OBS VALUE>
126 ng/mL

$$$$
>  <MOLECULE>
Cc1ccc(C2OC(CO)C(O)C(OC3OC(C(=O)O)C(O)C(O)C3O)C2O)cc1Cc1ccc(-c2ccc(F)cc2)s1 (stereo not shown)

>  <OBS VALUE>
44.9 ng/mL

$$$$
>  <MOLECULE>
Cc1ccc(C2OC(CO)C(O)C(O)C2O)cc1C(O)c1ccc(-c2ccc(F)cc2)s1 (stereo not shown)

>  <OBS VALUE>
97.5 ng/mL

$$$$
>  <MOLECULE>
Cc1ccc([C@@H]2O[C@H](CO)[C@@H](O)[C@H](O)[C@H]2O)cc1Cc1ccc(-c2ccc(F)cc2)s1

>  <OBS VALUE>
3310 ng/mL

$$$$

----------
- ASSAY NOTES: Stability of canagliflozin in rat plasma samples (QC samples)
- Type: in vitro ADME
- TEST PARAMETERS: rat plasma; room temperature (25 °C) for 24 h; nominal concentration 25; n = 5
ENDPOINT: Concentration found after storage (Mean ± SD)

>  <COMPOUND>
Cc1ccc([C@@H]2O[C@H](CO)[C@@H](O)[C@H](O)[C@H]2O)cc1Cc1ccc(-c2ccc(F)cc2)s1 [Canagliflozin]

>  <OBS VALUE>
26.2 ng/mL

$$$$

----------
Reported half-life values are given for each entry in this list.
- ASSAY NOTES: Plasma pharmacokinetics of canagliflozin and its metabolites after oral administration to CTRL and type 2 diabetic (DM) rats, UPLC-MS/MS
- Assay type: in vivo, rat
- TEST PARAMETERS: rat, plasma, po, 20 mg/kg, CTRL rats; canagliflozin 20 mg/kg oral; mean ± SD, n = 5; read-out: t1/2z (converted)

>  <MOLECULE>
Cc1ccc(C2OC(CO)C(O)C(O)C2O)cc1C(O)c1ccc(-c2ccc(F)cc2)s1 (stereo not shown) [M9]

>  <RESULT UNITS>
h

>  <half-life>
10.7

$$$$
>  <MOLECULE>
Cc1ccc([C@@H]2O[C@H](CO)[C@@H](O)[C@H](O)[C@H]2O)cc1Cc1ccc(-c2ccc(F)cc2)s1 [Canagliflozin]

>  <RESULT UNITS>
h

>  <half-life>
12.9

$$$$
>  <MOLECULE>
Cc1ccc(C2OC(CO)C(O)C(O)C2OC2OC(C(=O)O)C(O)C(O)C2O)cc1Cc1ccc(-c2ccc(F)cc2)s1 (stereo not shown) [M5]

>  <RESULT UNITS>
h

>  <half-life>
14.6

$$$$
>  <MOLECULE>
Cc1ccc(C2OC(CO)C(O)C(OC3OC(C(=O)O)C(O)C(O)C3O)C2O)cc1Cc1ccc(-c2ccc(F)cc2)s1 (stereo not shown) [M7]

>  <RESULT UNITS>
h

>  <half-life>
10

$$$$

----------
- ASSAY NOTES: Plasma pharmacokinetics of canagliflozin and its metabolites after oral administration to CTRL and type 2 diabetic (DM) rats, UPLC-MS/MS
- Assay type: in vivo, rat
- TEST PARAMETERS: rat, plasma, po, 20 mg/kg, DM (type 2 diabetic) rats; canagliflozin 20 mg/kg oral; mean ± SD, n = 5
Parameter Tmax: see the listing below.

>  <COMPOUND>
Cc1ccc(C2OC(CO)C(O)C(O)C2OC2OC(C(=O)O)C(O)C(O)C2O)cc1Cc1ccc(-c2ccc(F)cc2)s1 (stereo not shown)

>  <Tmax (h)>
1.67

$$$$
>  <COMPOUND>
Cc1ccc(C2OC(CO)C(O)C(OC3OC(C(=O)O)C(O)C(O)C3O)C2O)cc1Cc1ccc(-c2ccc(F)cc2)s1 (stereo not shown)

>  <Tmax (h)>
1.81

$$$$
>  <COMPOUND>
Cc1ccc([C@@H]2O[C@H](CO)[C@@H](O)[C@H](O)[C@H]2O)cc1Cc1ccc(-c2ccc(F)cc2)s1

>  <Tmax (h)>
3.2

$$$$
>  <COMPOUND>
Cc1ccc(C2OC(CO)C(O)C(O)C2O)cc1C(O)c1ccc(-c2ccc(F)cc2)s1 (stereo not shown)

>  <Tmax (h)>
4.75

$$$$

----------
- ASSAY NOTES: Stability of canagliflozin in rat plasma samples (QC samples)
- Assay type: in vitro ADME
- TEST PARAMETERS: rat plasma; three freeze–thaw cycles (each at −80 °C for 24 h); nominal concentration 25; n = 5
ENDPOINT: Concentration found after storage (Mean ± SD) (ng/mL)

>  <COMPOUND STRUCTURE>
Cc1ccc([C@@H]2O[C@H](CO)[C@@H](O)[C@H](O)[C@H]2O)cc1Cc1ccc(-c2ccc(F)cc2)s1

>  <OBS VALUE>
26

$$$$

----------
- ASSAY NOTES: Stability of canagliflozin in rat plasma samples (QC samples)
- Format: in vitro ADME
- TEST PARAMETERS: rat plasma; −80 °C for 30 days; nominal concentration 800; n = 5
- Experimental: High, medium and low levels of QC concentrations were used to evaluate the stability of canagliflozin in plasma under the experimental conditions. The specificity of the method was evaluated by comparing the chromatography of rat blank plasma samples with blank rat plasma spiked with standards at high, medium, low concentrations including LLOQ and rat plasma samples after oral administration of canagliflozin. […]
ENDPOINT: Concentration found after storage (Mean ± SD) (ng/mL)

>  <COMPOUND>
Cc1ccc([C@@H]2O[C@H](CO)[C@@H](O)[C@H](O)[C@H]2O)cc1Cc1ccc(-c2ccc(F)cc2)s1 [Canagliflozin]

>  <RESULT UNITS>
ng/mL

>  <OBS VALUE>
806

$$$$

----------
- ASSAY NOTES: Plasma pharmacokinetics of canagliflozin and its metabolites after oral administration to CTRL and type 2 diabetic (DM) rats, UPLC-MS/MS
- Format: in vivo, rat
- TEST PARAMETERS: rat, plasma, po, 20 mg/kg, AUC0–∞, DM (type 2 diabetic) rats; canagliflozin 20 mg/kg oral; plasma; mean ± SD, n = 5; heading: AUC0–∞
ENDPOINT: AUC(0-inf) (ng·h/mL)

>  <COMPOUND>
Cc1ccc([C@@H]2O[C@H](CO)[C@@H](O)[C@H](O)[C@H]2O)cc1Cc1ccc(-c2ccc(F)cc2)s1 [Canagliflozin]

>  <ENDPOINT>
AUC(0-inf)

>  <RESULT UNITS>
ng·h/mL

>  <OBS VALUE>
28400

$$$$

----------
- ASSAY NOTES: Plasma pharmacokinetics of canagliflozin and its metabolites after oral administration to CTRL and type 2 diabetic (DM) rats, UPLC-MS/MS
- Type: in vivo, rat
- TEST PARAMETERS: rat, plasma, po, 20 mg/kg, DM (type 2 diabetic) rats; canagliflozin 20 mg/kg oral; mean ± SD, n = 5; read-out: MRT0–t
ENDPOINT: MRT last (h)

>  <COMPOUND STRUCTURE>
Cc1ccc([C@@H]2O[C@H](CO)[C@@H](O)[C@H](O)[C@H]2O)cc1Cc1ccc(-c2ccc(F)cc2)s1

>  <ENDPOINT>
MRT last

>  <OBS VALUE>
12.3

$$$$
